The measurements presented in this section are drawn from patent US20240092758A1.

Tested on: IL-13 induced STAT6 phosphorylation in BEAS-2B human lung epithelial cells
Test: Cellular JAKI potency assay (BEAS-2B)
Type: cell-based
Conditions: Homo sapiens, BEAS-2B, BEAS-2B cells, read-out: BEAS2B pIC50 (converted)
metric: IC50

In [3]: df
Out[3]:
                                    compound  recorded_result
 0  CCc1cc(O)ccc1-c1ccc2c(-c3nc(C4=CCN(S(C)(=O)=O)CC4)c[nH]3)n[nH]c2c1    10 to 31.6 nM
 1  CCc1cc(O)ccc1-c1ccc2c(-c3nc(C4=C[C@H](COC)NC4)c[nH]3)n[nH]c2c1    3.16 to 10 nM
 2  CCc1cc(O)ccc1-c1ccc2c(-c3nc(C4=CCN(CC(=O)NC)C4)c[nH]3)n[nH]c2c1F    3.16 to 10 nM
 3  CCc1cc(O)ccc1-c1ccc2c(-c3nc(C4=CCN(C5CCN(C)C5)C4)c[nH]3)n[nH]c2c1F (stereo not drawn)    10 to 31.6 nM
 4  CCc1cc(O)ccc1-c1ccc2c(-c3nc(C4=CCCN(C5CCCCC5)C4)c[nH]3)n[nH]c2c1F   31.6 to 100 nM
 5  CCc1cc(O)ccc1-c1ccc2c(-c3nc(C4=CC(CC)NC4)c[nH]3)n[nH]c2c1F (stereo not drawn)    10 to 31.6 nM
 6  CCc1cc(O)ccc1-c1ccc2c(-c3nc(C4=CCN(C)CC4)c[nH]3)n[nH]c2c1F    3.16 to 10 nM
 7  CCc1cc(O)ccc1-c1ccc2c(-c3nc(C4=CCN(Cc5ccccc5)C4)c[nH]3)n[nH]c2c1   31.6 to 100 nM
 8  CCc1cc(O)ccc1-c1ccc2c(-c3nc(C4=CCN(C[C@H]5COCCN5)CC4)c[nH]3)n[nH]c2c1F   31.6 to 100 nM
 9  CCc1cc(O)ccc1-c1ccc2c(-c3nc(C4=CCN(C5CCCN(C)C5)CC4)c[nH]3)n[nH]c2c1F (stereo not drawn)    10 to 31.6 nM
10  CCc1cc(O)ccc1-c1ccc2c(-c3nc(C4=CCN(CCCNS(=O)(=O)C(C)C)CC4)c[nH]3)n[nH]c2c1    10 to 31.6 nM
11  CCc1cc(O)ccc1-c1ccc2c(-c3nc(C4=CCN(CCCNC(C)=O)CC4)c[nH]3)n[nH]c2c1    3.16 to 10 nM
12  CCc1cc(O)ccc1-c1ccc2c(-c3nc(C4=CCN(Cc5cnoc5)CC4)c[nH]3)n[nH]c2c1F    10 to 31.6 nM
13  CCc1cc(O)ccc1-c1ccc2c(-c3nc(C4=CCNC5(CC5)C4)c[nH]3)n[nH]c2c1F   31.6 to 100 nM
14  CCc1cc(O)ccc1-c1ccc2c(-c3nc(C4=CCN(C5CCOCC5)C4)c[nH]3)n[nH]c2c1    3.16 to 10 nM
15  CCc1cc(O)ccc1-c1ccc2c(-c3nc(C4=CCN(CCO)CC4)c[nH]3)n[nH]c2c1F    3.16 to 10 nM
16  CCc1cc(O)ccc1-c1ccc2c(-c3nc(C4=CCN(C5CCNC5)C4)c[nH]3)n[nH]c2c1F (stereo not drawn)   31.6 to 100 nM
17  CCc1cc(O)ccc1-c1ccc2c(-c3nc(C4=CCN(C5CCCCC5)CC4)c[nH]3)n[nH]c2c1F   31.6 to 100 nM
18  CCc1cc(O)ccc1-c1ccc2c(-c3nc(C4=C[C@H](CO)N(CCS(C)(=O)=O)C4)c[nH]3)n[nH]c2c1F   31.6 to 100 nM
19  CCc1cc(O)ccc1-c1ccc2c(-c3nc(C4=CCN(C)CC4)c[nH]3)n[nH]c2c1    3.16 to 10 nM
20  CCc1cc(O)ccc1-c1ccc2c(-c3nc(C4=C[C@@H](CC#N)NC4)c[nH]3)n[nH]c2c1F    10 to 31.6 nM
21  CCc1cc(O)ccc1-c1ccc2c(-c3nc(C4=CCN(CCN)CC4)c[nH]3)n[nH]c2c1F   31.6 to 100 nM
22  CCc1cc(O)ccc1-c1ccc2c(-c3nc(C4=CCNC4)c[nH]3)n[nH]c2c1F    3.16 to 10 nM
23  CCc1cc(O)ccc1-c1ccc2c(-c3nc(C4=CCN(C(=O)CNCCOC)C4)c[nH]3)n[nH]c2c1F   31.6 to 100 nM

* * *

Tested on: IL-13 induced STAT6 phosphorylation in BEAS-2B human lung epithelial cells
Test: Cellular JAKI potency assay (BEAS-2B)
Format: cell-based
Settings: Homo sapiens, BEAS-2B, BEAS-2B cells, read-out: BEAS2B pIC50 (converted)
metric: IC50

In [3]: df
Out[3]:
                                    molecule  recorded_result
 0  CCc1cc(O)ccc1-c1ccc2c(-c3nc(C4=CCNC(C(C)C)C4)c[nH]3)n[nH]c2c1F (stereo not drawn) [Example 368]   31.6 to 100 nM
 1  CCc1cc(O)ccc1-c1ccc2c(-c3nc(C4=CCN(Cc5c[nH]nn5)C4)c[nH]3)n[nH]c2c1F [Example 146]    10 to 31.6 nM
 2  CCc1cc(O)ccc1-c1ccc2c(-c3nc(C4=CC5CNCCN5CC4)c[nH]3)n[nH]c2c1F (stereo not drawn) [Example 358]   31.6 to 100 nM
 3  CCc1cc(O)ccc1-c1ccc2c(-c3nc(C4=CC[C@H](C)N(CCS(=O)(=O)NC)C4)c[nH]3)n[nH]c2c1F [Example 277]   31.6 to 100 nM
 4  CCc1cc(O)ccc1-c1ccc2c(-c3nc(C4=CCN(CCC(=O)NC)C4)c[nH]3)n[nH]c2c1F [Example 342]    10 to 31.6 nM
 5  CCc1cc(O)ccc1-c1ccc2c(-c3nc(C4=CCNC(C(C)(C)C)C4)c[nH]3)n[nH]c2c1F (stereo not drawn) [Example 370]   31.6 to 100 nM
 6  CCc1cc(O)ccc1-c1ccc2c(-c3nc(C4=CCN(C5CCCNC5)CC4)c[nH]3)n[nH]c2c1F (stereo not drawn) [Example 211]   31.6 to 100 nM
 7  CCc1cc(O)ccc1-c1ccc2c(-c3nc(C4=CCCN(C[C@@H](C)CO)C4)c[nH]3)n[nH]c2c1F [Example 49]    10 to 31.6 nM
 8  CCc1cc(O)ccc1-c1ccc2c(-c3nc(C4=CCN(C(=O)CCN(C)C)C4)c[nH]3)n[nH]c2c1F [Example 363]   31.6 to 100 nM
 9  CCc1cc(O)ccc1-c1ccc2c(-c3nc(C4=C(C)CNCC4)c[nH]3)n[nH]c2c1F [Example 227]    10 to 31.6 nM
10  CCc1cc(O)ccc1-c1ccc2c(-c3nc(C4=CCCN(C[C@H]5COCCN5)C4)c[nH]3)n[nH]c2c1F [Example 197]   31.6 to 100 nM
11  CCc1cc(O)ccc1-c1ccc2c(-c3nc(C4=CCN(S(=O)(=O)C5CNC5)C4)c[nH]3)n[nH]c2c1F [Example 180]   31.6 to 100 nM
12  CCc1cc(O)ccc1-c1ccc2c(-c3nc(C4=C[C@H](CO)N(CCCO)C4)c[nH]3)n[nH]c2c1F [Example 264]    10 to 31.6 nM
13  CCc1cc(O)ccc1-c1ccc2c(-c3nc(C4=CCN(CCS(=O)(=O)NC)CC4)c[nH]3)n[nH]c2c1 [Example 80]    10 to 31.6 nM
14  CCc1cc(O)ccc1-c1ccc2c(-c3nc(C4=CCN(CCNS(C)(=O)=O)C4)c[nH]3)n[nH]c2c1 [Example 113]    10 to 31.6 nM

* * *

Biological target: JAK2 (Homo sapiens (Human), UniProt O60674)
Sequence (O60674 whole entry): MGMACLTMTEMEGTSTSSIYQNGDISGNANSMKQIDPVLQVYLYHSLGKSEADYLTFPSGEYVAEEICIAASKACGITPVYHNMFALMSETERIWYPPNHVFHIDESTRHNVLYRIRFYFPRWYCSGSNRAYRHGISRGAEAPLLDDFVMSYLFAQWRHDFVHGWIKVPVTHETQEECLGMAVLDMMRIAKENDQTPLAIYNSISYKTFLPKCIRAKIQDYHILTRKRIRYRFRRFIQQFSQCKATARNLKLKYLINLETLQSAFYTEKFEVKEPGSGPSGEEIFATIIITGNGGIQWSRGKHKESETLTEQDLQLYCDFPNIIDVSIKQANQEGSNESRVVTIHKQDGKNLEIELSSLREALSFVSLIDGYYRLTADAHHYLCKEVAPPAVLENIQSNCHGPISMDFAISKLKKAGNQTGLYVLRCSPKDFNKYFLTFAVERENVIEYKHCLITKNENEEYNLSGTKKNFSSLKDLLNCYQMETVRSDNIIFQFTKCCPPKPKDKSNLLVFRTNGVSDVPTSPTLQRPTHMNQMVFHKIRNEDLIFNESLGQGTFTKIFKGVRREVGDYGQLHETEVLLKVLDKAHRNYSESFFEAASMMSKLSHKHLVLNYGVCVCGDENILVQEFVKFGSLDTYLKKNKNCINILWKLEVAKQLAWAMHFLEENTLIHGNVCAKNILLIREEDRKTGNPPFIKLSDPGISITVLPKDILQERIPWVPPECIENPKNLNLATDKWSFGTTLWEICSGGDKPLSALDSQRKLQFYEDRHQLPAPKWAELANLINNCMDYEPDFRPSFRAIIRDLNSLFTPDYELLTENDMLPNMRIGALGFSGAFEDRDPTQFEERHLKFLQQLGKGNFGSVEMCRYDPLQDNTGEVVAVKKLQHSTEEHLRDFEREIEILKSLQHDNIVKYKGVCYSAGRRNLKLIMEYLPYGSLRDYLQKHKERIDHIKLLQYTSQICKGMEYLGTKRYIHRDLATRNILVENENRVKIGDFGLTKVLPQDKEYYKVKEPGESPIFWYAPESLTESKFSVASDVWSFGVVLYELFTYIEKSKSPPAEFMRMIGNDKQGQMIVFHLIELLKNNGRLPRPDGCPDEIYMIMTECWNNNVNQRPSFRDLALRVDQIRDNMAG
Experiment: Biochemical JAK kinase assay (LanthaScreen), JAK2
Conditions: read-out: JAK2 pKi (converted)
Listed next: entries and their corresponding Ki.
metric: Ki

>>> print(df.to_string())
                                smiles_text  recorded_result
0  CCc1cc(O)ccc1-c1ccc2c(-c3nc(C4=CCCN(CCSC)C4)c[nH]3)n[nH]c2c1      0.1 to 1 nM
1  CCc1cc(O)ccc1-c1ccc2c(-c3nc(C4=CCN(C(C)=O)CC4)c[nH]3)n[nH]c2c1F      0.1 to 1 nM
2  CCOC(=O)C1=C(c2c[nH]c(-c3n[nH]c4c(F)c(-c5ccc(O)cc5CC)ccc34)n2)CNCC1      0.1 to 1 nM
3  CCc1cc(O)ccc1-c1ccc2c(-c3nc(C4=CCN(Cc5ccn[nH]5)CC4)c[nH]3)n[nH]c2c1F      0.1 to 1 nM
4  CCc1cc(O)ccc1-c1ccc2c(-c3nc(C4=CCN(C[C@@H](C)CO)CC4)c[nH]3)n[nH]c2c1F      0.1 to 1 nM
5  CCc1cc(O)ccc1-c1ccc2c(-c3nc(C4=CCN(C5COC5)C4)c[nH]3)n[nH]c2c1F      0.1 to 1 nM
6  CCc1cc(O)ccc1-c1ccc2c(-c3nc(C4=CCNC(C)(C)C4)c[nH]3)n[nH]c2c1      0.1 to 1 nM
